METHOD_DESCRIPTION: qHTS assay for identifying genotoxic compounds that show differential cytotoxicity against isogenic chicken DT40 cell lines with known DNA damage response pathways - Rad54/Ku70 mutant cell line (AID 743015); further: nearly all actives have a fitted effect of over 60% in size; further: potency means the concentration at half of the fitted maximal effect
EXPERIMENTAL_CONTEXT: DT40 Rad54/Ku70 mutant viability, CellTiter-Glo, 40 h; series mostly up to 66.8 µM
Results filed as inconclusive are left out. Active and inactive are the calls of the source. The call rests on the fitted dose curve; in most records, active means well fitted cell-killing curve with a large enough effect in the repeat runs; inconclusive means weak or mixed curves; inactive means no such curve, though single readings can be large or run the other way.
QUANTITY: Potency

Some compounds with recorded Potency:
Look up Potency for this compound: "CO[C@@H]1[C@@H](O[C@@H]2O[C@H](C)[C@@H](O[C@H]3C[C@@](C)(O)[C@@H](O)[C@H](C)O3)[C@H](N(C)C)[C@H]2O)[C@@H](CC=O)C[C@@H](C)[C@@H](O[C@@H]2CC[C@H](N(C)C)[C@@H](C)O2)/C=C/C=C/C[C@@H](C)OC(=O)C[C@H]1OC(C)=O" 7.5 µM (active)

Another compound to look at: "O=[N+]([O-])c1ccccc1CCO" inactive

Now the same for "CC(C)Oc1ccccc1O" inactive

Quick one: "C[C@H]1C[C@H]2[C@@H]3CCC4=CC(=O)C=C[C@]4(C)[C@@]3(F)[C@@H](O)C[C@]2(C)[C@@]1(O)C(=O)COP(=O)(O)O" inactive

Field entry: "Cc1ccc2c(Cl)cc(Cl)c(O)c2n1" 1.88 µM (active)

We now examine a further compound.
Which Potency value is on record for "c1ccc(-c2ccc(-c3ccccc3)cc2)cc1" ? inactive

----------
TARGET_OR_TEST_SYSTEM: Cytochrome P450 2C9 (Homo sapiens) (UniProt P11712)
Sequence (P11712 whole entry, looked up): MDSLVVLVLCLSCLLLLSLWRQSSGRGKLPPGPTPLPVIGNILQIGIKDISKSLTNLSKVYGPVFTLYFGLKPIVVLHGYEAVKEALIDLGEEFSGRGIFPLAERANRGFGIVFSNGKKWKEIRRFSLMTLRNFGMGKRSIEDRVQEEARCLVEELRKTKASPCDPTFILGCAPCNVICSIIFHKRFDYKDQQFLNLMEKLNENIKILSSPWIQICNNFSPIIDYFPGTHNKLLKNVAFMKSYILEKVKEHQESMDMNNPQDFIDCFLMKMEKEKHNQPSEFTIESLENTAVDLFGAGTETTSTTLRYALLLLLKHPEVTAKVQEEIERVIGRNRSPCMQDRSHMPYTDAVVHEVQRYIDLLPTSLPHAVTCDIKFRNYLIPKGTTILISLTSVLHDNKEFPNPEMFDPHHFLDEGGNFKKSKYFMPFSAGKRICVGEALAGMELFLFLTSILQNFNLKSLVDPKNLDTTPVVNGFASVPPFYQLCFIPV
METHOD_DESCRIPTION: Cytochrome P450 Family 2 Subfamily C Member 9 (CYP2C9) small molecule antagonists: luciferase reporter qHTS assay (AID 1671198); further: nearly all actives have a fitted effect of over 50% in size
EXPERIMENTAL_CONTEXT: P450-Glo CYP2C9 enzyme assay, luciferin luminescence; series mostly up to 115 µM
Results filed as inconclusive are left out. Activity calls are given as the source filed them. The call rests on the fitted dose curve; in most records, active means well fitted inhibition curve with a large enough effect in the repeat runs; inconclusive means weak or mixed curves; inactive means no such curve, though single readings can be large or run the other way.
Hello, when you answer, please use one of the following outcomes: T = active, F = inactive

Some solved cases for reference:
Per the records of this test, what outcome belongs to "CCCCCCCCCCCCCCCCC(=O)O" ? F

And then "CCOC(C)OCC" , what is it? F

Now consider "CCOC(=O)CC(O)(CC(=O)OCC)C(=O)OCC" . T

Further cases:
What outcome does the record of this test show for "CCCCCO" ? F

Try "Cc1ccc2c(Cl)cc(Cl)c(O)c2n1" next. F

----------
METHOD_DESCRIPTION: qHTS assay to identify small molecule antagonists of the thyroid receptor (TR) signaling pathway (AID 743065); further: nearly all actives have a fitted effect of over 55% in size
EXPERIMENTAL_CONTEXT: GH3.TRE-Luc, T3-stimulated luciferase inhibition, 23.5 h; series mostly up to 70.3 µM
Inconclusive results are not listed. Active and inactive are the calls of the source. Calls come from the whole dose curve; as a rule, active = well fitted inhibition curve with a large enough effect in the repeat runs; inconclusive = weak or mixed curves; inactive = no such curve, though single readings can be large or run the other way.
Return exactly one item of active, inactive

Use the examples below as a reference point.
Dear all, I need the recorded test outcome for "CS(C)=O" , thank you. inactive

Would you kindly repeat that for CCCCCC1CCC(=O)O1 (configuration not stated) ? inactive

Repeat for the following compound: "Cc1c(Nc2ncccc2C(=O)O)cccc1C(F)(F)F" active

Now the same for "CCOc1ccc(NC(C)=O)cc1N" inactive

And the next one, "CC1(C)[C@@H]2CC[C@]3(C2)[C@@H]1C(=O)CCC3(C)C" ? inactive

---
In this assay, the call recorded for "CC/C=C\CCO" was what? inactive

Please answer likewise for "OCCc1ccncc1" inactive

Proceed to "CC[C@H](NC(C)C)[C@H](O)c1ccc(O)c2[nH]c(=O)ccc12" inactive

Try "O=C(Cl)c1ccc(F)c(Cl)c1" next. inactive

Would you mind doing "C=CCCC" as well? inactive

Further, for CCC1=C(C)CN(C(=O)NCCc2ccc(S(=O)(=O)NC(=O)NC3CCC(C)CC3)cc2)C1=O (configuration not stated) ? inactive

"O=c1[nH]nc(-c2ccc([N+](=O)[O-])o2)o1" ? inactive

Origin of values: PubChem BioAssay (Tox21)
